B1: HDV Ribozyme (parent)
chain: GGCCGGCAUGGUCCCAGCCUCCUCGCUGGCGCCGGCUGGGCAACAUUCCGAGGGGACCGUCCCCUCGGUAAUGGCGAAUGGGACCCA

variants of: B1; assay: self-cleavage, relative activity (ratio to wild type); higher = more cleavage; co-transcriptional
Assay readout: self-cleavage

>>> observed_value("U12G C66A")
0.923
>>> observed_value("C22A A78G")
0.0369
>>> observed_value("C30U C86A")
0.923
>>> observed_value("U12A G82A")
0.0489
>>> observed_value("U47G C85U")
1.21
>>> observed_value("G35A G40U")
0.42
>>> observed_value("G50C C64A")
0.389
>>> observed_value("G11U G28A")
0.0219
